- details: Patient ID 177, CYP2D6 functional group EM/EM
measure: plasma concentration

Before answering, review these 2 worked examples.
INSERT INTO results (compound, observed) VALUES
  ('CC/C(=C(\c1ccc(O)cc1)c1ccc(OCCNC)cc1)c1ccccc1 [(Z)-Endoxifen 3-OH-NDM-Tam]', '7.84 ng/mL'),
  ('CC/C(=C(\c1ccccc1)c1ccc(OCCN(C)C)cc1)c1ccccc1 [Tamoxifen]', '173.08 ng/mL');

**Query** Look up and state reported plasma concentration for CC/C(=C(/c1ccc(OCCNC)cc1)c1ccc(O[C@@H]2O[C@H](C(=O)O)[C@@H](O)[C@H](O)[C@H]2O)cc1)c1ccccc1 [4-OH-NDM-Tam-Gluc]
**Result** 1.133 ng/mL

**Query** Look up and state reported plasma concentration for CCC(=C(c1ccccc1)c1ccc(OCCNC)cc1)c1ccc(O)cc1 [4'-OH-NDM-Tam]
**Result** 4.095 ng/mL

**Query** Look up and state reported plasma concentration for CC/C(=C(\c1ccccc1)c1ccc(OCCN(C)C)cc1)c1ccc(O)cc1 [4'-OH-Tam]
**Result** 3.10 ng/mL

Values from paper PMC4522133
